Test: NCI Yeast Anticancer Drug Screen. Data for the mec2-1 strain (AID 157)
Conditions: S. cerevisiae mec2-1 strain, at 50.0 µM, stronger effect = higher value
The panel holds about 79,000 compounds, 15% with a hit somewhere; the sample as a whole holds those more often.
growth inhibition: recorded values
# unit: % | format: bare number

CC(C)N(N=O)C(C)C; -4.6
CCOC(=O)C(c1ccsc1)P(=O)(OCC)OCC (configuration not stated); 66.7
CCOC(OCC)c1ccc(N(C)C)cc1.[C-]#[O+].[C-]#[O+].[C-]#[O+].[Cr]; -30.2
COc1ccccc1N=Nc1cccc[c]1[Hg][Cl]; 99
O=[As](O)(O)CCc1ccccc1; 3.75

Inquiry: Request the reported growth inhibition associated with CC1OC(O[C@H]2C[C@@H](O)[C@]3(CO)[C@H]4[C@H](O)C[C@]5(C)[C@@H](C6=CC(=O)OC6)CC[C@]5(O)[C@@H]4CC[C@]3(O)C2)C(O)C(O)C1O (some centres not stated)
Reply text: 1.15
